Consider the following molecules; for each one, report its CC50.
- System: HEK293
- EXPERIMENTAL DETAILS: cells
- Type: functional, Homo sapiens, ATCC CRL1573
- STUDY CONDITIONS: Homo sapiens, ATCC CRL1573, HEK293; ASSAY_TEST Inhibition of Cell Viability; detection method Resazurin; Fluorescence (ex560/em590); MEDIA DMEM with 10% FBS; plate type 384well; TC; CORNING #3712; time 18 hr; read-out: CC50

May I ask what CC50 has been recorded for CC(C)n1cc(NC(=O)c2cc(NC(=O)c3cc4ccccc4oc3=O)cn2C)cc1C(=O)Nc1cc(C(=O)NCCCN(C)C)n(C)c1.O=C(O)C(F)(F)F ?
> 32 µg/mL

May I ask what CC50 has been recorded for COc1ccc(/C=C/c2ccc(C(=O)Nc3cc(C(=O)Nc4cc(C(=O)NCCN5CCCCC5)n(CCCc5ccccc5)c4)n(C)c3)cn2)cc1.O=C(O)C(F)(F)F.O=C(O)C(F)(F)F ?
> 32 µg/mL

May I ask what CC50 has been recorded for CC(C)c1sc(NC(=O)c2cc(NC(=O)c3cc(NC(=O)c4cc(NC=O)cn4C)cn3C)cn2C)nc1C(=O)NCCCN(C)C.O=C(O)C(F)(F)F ?
> 32 µg/mL

May I ask what CC50 has been recorded for Cn1cc(NC(=O)c2cc(NC(=O)c3ccc(/C=C/c4cc5ccccc5nc4On4nnc5ccccc54)cc3)cn2C)cc1C(=O)NCCN1CCOCC1.O=C(O)C(F)(F)F ?
> 32 µg/mL

May I ask what CC50 has been recorded for Cn1cc(NC(=O)c2cc(NC=O)cn2C)cc1C(=O)NCCC(=N)N.O=C(O)C(F)(F)F ?
> 32 µg/mL

May I ask what CC50 has been recorded for COC(=O)c1ccc(C(=O)Nc2cc(C(=O)Nc3cc(C(=O)Nc4nc(C(=O)NCCCN(C)C)c(CCC(C)C)s4)n(C)c3)n(C)c2)cc1.O=C(O)C(F)(F)F ?
2.72 µg/mL

May I ask what CC50 has been recorded for COc1ccc(/C=C/c2ccc(C(=O)Nc3cc(C(=O)Nc4cc(C(=O)NCCN5CCC(OC)CC5)n(C)c4)n(C)c3)cn2)cc1.O=C(O)C(F)(F)F.O=C(O)C(F)(F)F ?
2.7 µg/mL

May I ask what CC50 has been recorded for Cn1cc(NC(=O)c2cc(NC(=N)c3cnc4ccccc4c3)cn2C)cc1C(=O)NCCC(=N)N.O=C(O)C(F)(F)F.O=C(O)C(F)(F)F.O=C(O)C(F)(F)F ?
> 32 µg/mL

May I ask what CC50 has been recorded for COc1cccc(C(=N)Nc2cc(C(=O)Nc3cc(C(=O)Nc4nc(C(=O)NCCCN(C)C)c(CCC(C)C)s4)n(C)c3)n(C)c2)c1.O=C(O)C(F)(F)F.O=C(O)C(F)(F)F ?
> 32 µg/mL

May I ask what CC50 has been recorded for COc1ccc(/C=C/c2ccc(C(=O)Nc3cc(C(=O)Nc4cc(C(=O)NCCN5CCOCC5)n(C)c4)n(C)c3)cn2)cc1.O=C(O)C(F)(F)F.O=C(O)C(F)(F)F ?
27.1 µg/mL

May I ask what CC50 has been recorded for CC(=O)Nc1cc(C(=O)Nc2cc(C(=O)NCCC(=N)N)n(C)c2)n(C)c1.O=C(O)C(F)(F)F ?
> 32 µg/mL

May I ask what CC50 has been recorded for CC(C)CCc1sc(NC(=O)c2cc(NC(=O)c3cc(NC(=N)c4ccccc4)cn3C)cn2C)nc1C(=O)NCCCN(C)C.O=C(O)C(F)(F)F.O=C(O)C(F)(F)F ?
> 32 µg/mL

May I ask what CC50 has been recorded for COCCOC1CCN(CCNC(=O)c2cc(NC(=O)c3cc(NC(=O)c4ccc(/C=C/c5ccc(OC)cc5)cc4)cn3C)cn2C)CC1.O=S(=O)(O)O ?
1.57 µg/mL

May I ask what CC50 has been recorded for Cn1cc(NC(=O)c2cc(NC(=O)c3ccc(/C=C/c4ccc(C(F)(F)F)cc4)cc3)cn2C)cc1C(=O)NCCN1CCOCC1.O=C(O)C(F)(F)F ?
> 32 µg/mL

May I ask what CC50 has been recorded for COc1ccc(/C=C/c2ccc(C(=O)Nc3cc(C(=O)Nc4cc(C(=O)NCCN5CCC(OC)CC5)n(C)c4)n(C)c3)cc2)cc1.O=C(O)C(F)(F)F ?
6.43 µg/mL

May I ask what CC50 has been recorded for Cn1cc(NC(=O)c2cc(NC(=O)c3ccc(/C=C/c4ccc(F)cc4)cc3)cn2C)cc1C(=O)NCCN1CCOCC1.O=C(O)C(F)(F)F ?
> 32 µg/mL

May I ask what CC50 has been recorded for CC(C)CCn1cc(NC(=O)c2cc(NC(=O)c3cc(NC(=N)N)cn3C)cn2C)cc1C(=O)NCCCN(C)C.O=C(O)C(F)(F)F.O=C(O)C(F)(F)F ?
> 32 µg/mL
